Record set of IC50 for target or system Human alpha-thrombin (Homo sapiens).
Please give a number only; it is taken to be in µM.

[in] Would you mind telling me what IC50 value was observed for Cc1c2c(nn1C(=O)c1cccc3[nH]ccc13)CCCC2 (single isomer, unassigned) ?
[out] 33

[in] Repeat with "Cc1cc2c(C(=O)n3nc4c(c3N)CC(F)(F)CC4)cccc2[nH]1"
[out] 9

[in] Another molecule to check: Nc1c2c(nn1C(=O)[C@H]1CCCc3[nH]c(Cl)cc31)CC[C@@H](O)C2 (single isomer, unassigned) [Example 126]
[out] 37

[in] Follow-up item: Nc1c2c(nn1C(=O)c1cccc3[nH]c(C4CC4)cc13)CCCC2 (single isomer, unassigned)
[out] 28

[in] And what about the molecule Cc1cc2c(o1)CCCC2C(=O)n1nc2c(c1N)CCCC2 (stereo not drawn) ?
[out] 30

[in] Same lookup for Nc1c2c(nn1C(=O)c1cccc3[nH]ccc13)CCCC2 (single isomer, unassigned) , please.
[out] 25

* * *

The following compounds each carry a recorded pIC50 for Human FXIIa (Homo sapiens, UniProt P00748).
pIC50 here is simply -log10 of the concentration when that concentration is written in mol/L.

[in] Return pIC50 measured with Human FXIIa (Homo sapiens, UniProt P00748) given this compound: Cn1ccc2c1CCCC2C(=O)n1nc2c(c1N)CCCC2 (single isomer, unassigned)
[out] 6.40

[in] Quick one: Nc1c2c(nn1C(=O)[C@H]1CCNc3ccc(F)cc31)CC[C@@H](F)C2 (single isomer, unassigned)
[out] 7.22

[in] How about "CCc1cc2c(C(=O)n3nc4c(c3N)CCCC4)ccnc2[nH]1" ?
[out] 7.30

[in] Another compound to look at: "CCn1c(C)c(C(=O)n2nc3c(c2N)CCCC3)c2ccccc21"
[out] 4.92

[in] Subsequent entry: Nc1c2c(nn1C(=O)C1CCNc3ccc(F)cc31)CCC(NC(=O)OCc1ccccc1)C2 (single isomer, unassigned) [Example 190]
[out] 6.40

[in] Now consider Nc1nn(C(=O)[C@H]2CCNc3ccc(Cl)cc32)c2c1C[C@H](O)CC2 (single isomer, unassigned) .
[out] 4.64

[in] And CN1CCC(C(=O)n2nc3c(c2N)CCCC3)c2ccccc21 (single isomer, unassigned) [Example 25] ?
[out] 6.52

[in] Follow-up entry: Cc1cccc2c1NCC[C@H]2C(=O)n1nc2c(c1N)CC[C@@H](O)C2 (single isomer, unassigned)
[out] 5.48

[in] Item: Nc1nn(C(=O)C2CCNc3ccc(F)cc32)c2c1CC(F)CC2 (single isomer, unassigned)
[out] 4.19

* * *

System: Human FXIIa (Homo sapiens)
Sequence (P00748 373-615 limits assumed): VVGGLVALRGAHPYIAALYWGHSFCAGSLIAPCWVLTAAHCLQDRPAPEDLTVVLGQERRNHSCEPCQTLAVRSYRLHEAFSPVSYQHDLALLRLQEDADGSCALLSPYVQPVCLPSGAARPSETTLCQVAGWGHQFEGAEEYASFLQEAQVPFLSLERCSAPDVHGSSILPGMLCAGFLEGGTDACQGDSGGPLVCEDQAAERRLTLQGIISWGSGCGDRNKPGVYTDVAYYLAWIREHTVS
Sequence (P00748 20-372 partner limits assumed): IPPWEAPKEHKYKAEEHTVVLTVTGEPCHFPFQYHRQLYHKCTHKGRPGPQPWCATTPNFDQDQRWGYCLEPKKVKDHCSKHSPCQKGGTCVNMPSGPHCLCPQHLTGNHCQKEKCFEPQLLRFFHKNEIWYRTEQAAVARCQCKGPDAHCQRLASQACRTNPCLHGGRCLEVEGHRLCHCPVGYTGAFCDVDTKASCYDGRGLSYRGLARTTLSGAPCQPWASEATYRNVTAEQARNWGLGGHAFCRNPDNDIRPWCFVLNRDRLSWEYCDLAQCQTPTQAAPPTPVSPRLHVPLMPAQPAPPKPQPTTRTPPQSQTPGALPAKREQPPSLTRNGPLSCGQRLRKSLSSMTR
Parameter measured: pIC50
pIC50 field: float, defined as -log10 of concentration (mol/L).

[in] GET /values?readout=pIC50&item= CCc1ccccc1C(=O)n1nc2c(c1N)CCCC2 [Example 40]
[out] 4.82

[in] Same again, this time with Cc1cccc2c1NCCC2C(=O)n1nc2c(c1N)C=CCC2 (single isomer, unassigned) [Example 194]
[out] 5.15

[in] Entry Nc1c2c(nn1C(=O)[C@H]1CCNc3ccc(F)cc31)CC[C@H](F)C2 (single isomer, unassigned) [Example 140] please
[out] 6.70

[in] What do we get for Nc1c2c(nn1C(=O)c1c[nH]c3ccccc13)CCCC2 [Example 42] ?
[out] 4.96

[in] Then this compound: CCc1cc2c(C(=O)n3nc4c(c3N)CCCC4)cccc2n1CC (single isomer, unassigned) [Example 68]
[out] 8.00

[in] Also check Cc1cc2c(s1)CCCC2C(=O)n1nc2c(c1N)CCCC2 (stereo not shown) [Example 86]
[out] 6.30

[in] What about Nc1c2c(nn1C(=O)c1cccc3[nH]ccc13)CCCC2 (single isomer, unassigned) [Example 1] ?
[out] 7.00

[in] Entry COC1CCc2nn(C(=O)c3cccc4[nH]c(C)cc34)c(N)c2C1 (stereo not shown) [Example 119] please
[out] 7.30

[in] Query Nc1c2c(nn1C(=O)C1CCNc3ccccc31)CCCC2 (single isomer, unassigned) [Example 78] next
[out] 6.82

[in] Now this one: CCn1cc(C(=O)n2nc3c(c2N)CCCC3)c2ccccc21 [Example 43]
[out] 5.12

[in] Again, but for Cc1cc2c(C(=O)n3cc4c(n3)CCCC4)cccc2[nH]1 [Example 159]
[out] 6.82

[in] Next compound: CCc1cc2c(C(=O)n3nc4c(c3N)CCCC4)cccc2n1C (single isomer, unassigned) [Example 66]
[out] 8.00

[in] Same again, this time with Nc1c2c(nn1C(=O)C1CCNc3ccc(F)cc31)CCC(NC(=O)OCc1ccccc1)C2 (single isomer, unassigned) [Example 186]
[out] 5.60

[in] Now the compound Cc1cc2c(C(=O)n3nc4c(c3N)CC(OCc3ccccc3)CC4)cccc2[nH]1 (stereo not shown) [Example 117]
[out] 7.52

[in] Item: Cc1ccc2c(c1)N(C)CCC2C(=O)n1nc2c(c1N)CCCC2 (stereo not shown) [Example 163]
[out] 5.82

Values were extracted from patent US10538512B2.
